Source of measurements: PubChem BioAssay AID2060508

- System: 454973-116-R2-J3-PDC spheroids, viability, % test/control
- method: Anticancer human tumor 454973-116-R2-J3-PDC patient-derived pancreatic carcinoma cell line growth inhibition [GQUAD]
- condition: second compound 0.316 µM; first compound 0.00316 µM; stronger effect = lower value; spheroids with HUVEC and MSC
Entries and their viability, T/C values follow.

compound: CCc1c2c(nc3ccc(O)cc13)-c1cc3c(c(=O)n1C2)COC(=O)[C@]3(O)CC + Cc1[nH]c2ccc(F)cc2c1-c1nc2c3cccnc3c3ncccc3c2[nH]1
measurement-target: 454973-116-R2-J3-PDC spheroids, viability, % test/control
viability, T/C: 25.7%

compound: CCc1c2c(nc3ccc(O)cc13)-c1cc3c(c(=O)n1C2)COC(=O)[C@]3(O)CC + CN(C)c1ccc(Nc2c3ccc(NC(=O)CCN4CCCC4)cc3nc3cc(NC(=O)CCN4CCCC4)ccc23)cc1
measurement-target: 454973-116-R2-J3-PDC spheroids, viability, % test/control
viability, T/C: 27.2%

compound: CC[C@@]1(O)C(=O)OCc2c1cc1n(c2=O)Cc2cc3c(CN(C)C)c(O)ccc3nc2-1 + CN(C)c1ccc(Nc2c3ccc(NC(=O)CCN4CCCC4)cc3nc3cc(NC(=O)CCN4CCCC4)ccc23)cc1
measurement-target: 454973-116-R2-J3-PDC spheroids, viability, % test/control
viability, T/C: 111%

====

- Tested on: 454973-116-R2-J3-PDC spheroids, viability, % test/control
- method: Anticancer human tumor 454973-116-R2-J3-PDC cell line growth inhibition [GQUAD];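 also: spheroids exposed to compounds for seven days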;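 as to viability, T/C: 100% = DMSO vehicle control viability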
- condition: second compound 0.316 µM; first compound 0.316 µM; stronger effect = lower value; spheroids with HUVEC and MSC
So basically, if viability, T/C comes in under 50% it's yes (1), and if it's 50% or more it's no (0).

compound: COc1cc(C2c3cc4c(cc3C(OC3OC5COC(C)OC5C(O)C3O)C3COC(=O)C23)OCO4)cc(OC)c1O (stereo not given) + Cc1cnc(CNC(=O)c2c(=O)c3ccc(N4CCCN(C)CC4)nc3n3c2sc2ccccc23)cn1
label-class: no (0)
//
compound: CCc1c2c(nc3ccc(O)cc13)-c1cc3c(c(=O)n1C2)COC(=O)[C@]3(O)CC + CN(C)c1ccc(Nc2c3ccc(NC(=O)CCN4CCCC4)cc3nc3cc(NC(=O)CCN4CCCC4)ccc23)cc1
label-class: yes (1)
//
compound: Nc1ccn(C2OC(CO)C(O)C2(F)F)c(=O)n1 (stereo not given) + Cc1cnc(CNC(=O)c2c(=O)c3ccc(N4CCCN(C)CC4)nc3n3c2sc2ccccc23)cn1
label-class: yes (1)
//
compound: CC1COCCN1c1cc(C2(S(C)(=N)=O)CC2)nc(-c2ccnc3[nH]ccc23)n1 (stereo not given) + Cc1cnc(CNC(=O)c2c(=O)c3ccc(N4CCCN(C)CC4)nc3n3c2sc2ccccc23)cn1
label-class: no (0)
//
compound: CC(C)n1c(=O)n(C)c2cnc3cc(F)c(-c4ccc(OCCCN5CCCCC5)nc4)cc3c21 + CN(C)c1ccc(Nc2c3ccc(NC(=O)CCN4CCCC4)cc3nc3cc(NC(=O)CCN4CCCC4)ccc23)cc1
label-class: no (0)

====

Entries and their viability, T/C
- System: 454973-116-R2-J3-PDC spheroids, viability, % test/control
- method: Anticancer human tumor 454973-116-R2-J3-PDC cell line growth inhibition [GQUAD];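 also: spheroids exposed to compounds for seven days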;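 as to viability, T/C: 100% = DMSO vehicle control viability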
- condition: second compound 0.316 µM; first compound 0.316 µM; stronger effect = lower value; spheroids with HUVEC and MSC
measured-metric: viability, T/C

compound: C#Cc1c(F)ccc2cc(O)cc(-c3ncc4c(N5CC6CCC(C5)N6)nc(OCC56CCCN5CC(F)C6)nc4c3F)c12 (stereo not drawn) + Cc1[nH]c2ccc(F)cc2c1-c1nc2c3cccnc3c3ncccc3c2[nH]1
result: 27.7%
//
compound: C=CCn1c(=O)c2cnc(Nc3ccc(N4CCN(C)CC4)cc3)nc2n1-c1cccc(C(C)(C)O)n1 + Cc1cnc(CNC(=O)c2c(=O)c3ccc(N4CCCN(C)CC4)nc3n3c2sc2ccccc23)cn1
result: 37.2%
//
compound: COc1ncnc(C2CC2)c1-c1ncc2cnn(Cc3ccc(-c4nc(C(F)(F)F)cn4C(C)C)cc3)c2n1 + Cc1[nH]c2ccc(F)cc2c1-c1nc2c3cccnc3c3ncccc3c2[nH]1
result: 106%

====

- Test system: 454973-116-R2-J3-PDC spheroids, viability, % test/control
- method: Anticancer human tumor 454973-116-R2-J3-PDC cell line growth inhibition [GQUAD];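 also: spheroids exposed to compounds for seven days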
- condition: curve of first compound; second compound 1 µM; spheroids with HUVEC and MSC
measured-metric: IC50 (nM)

compound: Cc1cccc(N(C)C(=O)C2C(O)CCN2c2nc(C)cc(C(F)(F)F)c2C#N)c1 (stereo unspecified) + CN(C)c1ccc(Nc2c3ccc(NC(=O)CCN4CCCC4)cc3nc3cc(NC(=O)CCN4CCCC4)ccc23)cc1
u: nM
value-relation-sign: >
quantitative-result: 10000
--
compound: CC(C)n1c(=O)n(C)c2cnc3cc(F)c(-c4ccc(OCCCN5CCCCC5)nc4)cc3c21 + Cc1cnc(CNC(=O)c2c(=O)c3ccc(N4CCCN(C)CC4)nc3n3c2sc2ccccc23)cn1
u: nM
value-relation-sign: =
quantitative-result: 39.7
--
compound: CC1COCCN1c1cc(-c2ccnn2C)c2ccnc(-c3ccn[nH]3)c2n1 (stereo unspecified) + CN(C)c1ccc(Nc2c3ccc(NC(=O)CCN4CCCC4)cc3nc3cc(NC(=O)CCN4CCCC4)ccc23)cc1
u: nM
value-relation-sign: =
quantitative-result: 171
--
compound: Cc1[nH]c2ccccc2c1CCNCc1ccc(/C=C/C(=O)NO)cc1 + Cc1[nH]c2ccc(F)cc2c1-c1nc2c3cccnc3c3ncccc3c2[nH]1
u: nM
value-relation-sign: =
quantitative-result: 68.4
--
compound: Cc1cccc(N(C)C(=O)C2C(O)CCN2c2nc(C)cc(C(F)(F)F)c2C#N)c1 (stereo unspecified) + Cc1[nH]c2ccc(F)cc2c1-c1nc2c3cccnc3c3ncccc3c2[nH]1
u: nM
value-relation-sign: >
quantitative-result: 10000
--
compound: CC1COCCN1c1cc(C2(O)CC3CCC(C2)O3)c2cnn(-c3ccn[nH]3)c2n1 (stereo unspecified) + CN(C)c1ccc(Nc2c3ccc(NC(=O)CCN4CCCC4)cc3nc3cc(NC(=O)CCN4CCCC4)ccc23)cc1
u: nM
value-relation-sign: =
quantitative-result: 146

====

- Tested on: 454973-116-R2-J3-PDC spheroids, viability, % test/control
- method: Anticancer human tumor 454973-116-R2-J3-PDC cell line growth inhibition [GQUAD]; active means viability on the fitted dose curve at most 10% of control; inactive means the rest;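 also: spheroids exposed to compounds for seven days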
- condition: second compound 3.16 µM; first compound 10 µM; spheroids with HUVEC and MSC
Outcomes: TRUE = active, FALSE = inactive

compound: C=CCn1c(=O)c2cnc(Nc3ccc(N4CCN(C)CC4)cc3)nc2n1-c1cccc(C(C)(C)O)n1 + Cc1[nH]c2ccc(F)cc2c1-c1nc2c3cccnc3c3ncccc3c2[nH]1
measurement-target: 454973-116-R2-J3-PDC spheroids, viability, % test/control
label-class: FALSE
--
compound: O=C(NO)c1cnc(N2CCN(S(=O)(=O)c3ccc4ccccc4c3)CC2)nc1 + CN(C)c1ccc(Nc2c3ccc(NC(=O)CCN4CCCC4)cc3nc3cc(NC(=O)CCN4CCCC4)ccc23)cc1
measurement-target: 454973-116-R2-J3-PDC spheroids, viability, % test/control
label-class: TRUE
--
compound: CCCS(=O)(=O)Nc1ccc(F)c(C(=O)c2c[nH]c3ncc(-c4ccc(Cl)cc4)cc23)c1F + Cc1cnc(CNC(=O)c2c(=O)c3ccc(N4CCCN(C)CC4)nc3n3c2sc2ccccc23)cn1
measurement-target: 454973-116-R2-J3-PDC spheroids, viability, % test/control
label-class: FALSE
--
compound: CC1COCCN1c1cc(C2(S(C)(=N)=O)CC2)nc(-c2ccnc3[nH]ccc23)n1 (stereo not given) + Cc1[nH]c2ccc(F)cc2c1-c1nc2c3cccnc3c3ncccc3c2[nH]1
measurement-target: 454973-116-R2-J3-PDC spheroids, viability, % test/control
label-class: FALSE
--
compound: CC(C)n1c(=O)n(C)c2cnc3cc(F)c(-c4ccc(OCCCN5CCCCC5)nc4)cc3c21 + Cc1[nH]c2ccc(F)cc2c1-c1nc2c3cccnc3c3ncccc3c2[nH]1
measurement-target: 454973-116-R2-J3-PDC spheroids, viability, % test/control
label-class: FALSE

====

- System: 454973-116-R2-J3-PDC spheroids, viability, % test/control
- method: Anticancer human tumor 454973-116-R2-J3-PDC cell line growth inhibition [GQUAD];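 also: spheroids exposed to compounds for seven days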;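 as to viability, T/C: 100% = DMSO vehicle control viability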
- condition: second compound 3.16 µM; first compound 0.316 µM; stronger effect = lower value; spheroids with HUVEC and MSC
# viability, T/C annotations

molecule: Cn1ncnc1[C@H]1c2n[nH]c(=O)c3cc(F)cc(c23)N[C@@H]1c1ccc(F)cc1 + Cc1[nH]c2ccc(F)cc2c1-c1nc2c3cccnc3c3ncccc3c2[nH]1
measurement-target: 454973-116-R2-J3-PDC spheroids, viability, % test/control
u: %
viability, T/C: 82

molecule: CC[C@@]1(O)C(=O)OCc2c1cc1n(c2=O)Cc2cc3c(CN(C)C)c(O)ccc3nc2-1 + Cc1cnc(CNC(=O)c2c(=O)c3ccc(N4CCCN(C)CC4)nc3n3c2sc2ccccc23)cn1
measurement-target: 454973-116-R2-J3-PDC spheroids, viability, % test/control
u: %
viability, T/C: 42.7

molecule: C=CCn1c(=O)c2cnc(Nc3ccc(N4CCN(C)CC4)cc3)nc2n1-c1cccc(C(C)(C)O)n1 + Cc1cnc(CNC(=O)c2c(=O)c3ccc(N4CCCN(C)CC4)nc3n3c2sc2ccccc23)cn1
measurement-target: 454973-116-R2-J3-PDC spheroids, viability, % test/control
u: %
viability, T/C: 40.8
